- Tested on: denuded aortic rings, GC A receptor
- TEST: Relaxation of noradrenaline constricted endothelium-denuded aortic rings (Example 11)
- Design: species or system rat
- RUN_CONDITIONS: GC-A mediated
Non-standard residues stand in square brackets, D forms with d. No end group written: not given here. Sec = N[C@@H](C[SeH])C(=O)O
Mean relaxation SEM of denuded aortic rings expressed as % of KCl response overview
Only the number, expressed in %, is required.

Recorded Mean relaxation SEM of denuded aortic rings expressed as % of KCl response, per entry:
SDSKISKGCFGFPLDRIGSVSGLGCNRIMQNPPKKFSGE (A portion of a natriuretic peptide) [TNPc K7S6]: 43.8
SDSKIGNGUFGFPLDRIGSVSGLGUNRIMQNPPKKFSGE (SDSKIGNG[Sec]FGFPLDRIGSVSGLG[Sec]NRIMQNPPKKFSGE; ends and bridges not checked) [TNPc diseleno]: 60.5
SDSKIGNGCFGFPLDRIGSVSGLGCNRIMQNRPKKFSGE (A portion of a natriuretic peptide) [TNPc P32R]: 66.4

Next sequence, please.
What value of Mean relaxation SEM of denuded aortic rings expressed as % of KCl response has been reported for the following sequence? SDSKIGNGCFGFPLDRIGSVSGLGCNRPMQNPPKKFSGE (A portion of a natriuretic peptide) [TNPc I28P]
52.6
